Data origin: patent US20240261318A1

test system: FGF10; experiment: Analysis of mRNA expression of FGF10 in human dermal fibroblasts (qPCR); type: cell-based; conditions: human fibroblasts treated with the single substance; result in words
Reported endpoint: mRNA expression of FGF 10

Compound	Reported endpoint	Value observed
Nc1ncnc2c1ncn2[C@@H]1O[C@H](CO)C[C@H]1O [Cordycepin, cordycepin]	mRNA expression of FGF 10	promoted
C=C1CC[C@@H]2[C@](C)(CO)[C@H](O)CC[C@@]2(C)[C@@H]1C/C=C1/C(=O)OC[C@H]1O [Andrographolide, andrographolide]	mRNA expression of FGF 10	promoted
O=c1c(O)c(-c2ccc(O)c(O)c2)oc2cc(O)cc(O)c12 [Quercetin, quercetin]	mRNA expression of FGF 10	promoted
